The origin of these recorded values is patent US20140072563A1.

target or test system: T1, hErbB3.mFc (soluble dimeric human ErbB3 extracellular domain fused to mouse Fc) (human)
T1 construct: called dimeric
T1 chain: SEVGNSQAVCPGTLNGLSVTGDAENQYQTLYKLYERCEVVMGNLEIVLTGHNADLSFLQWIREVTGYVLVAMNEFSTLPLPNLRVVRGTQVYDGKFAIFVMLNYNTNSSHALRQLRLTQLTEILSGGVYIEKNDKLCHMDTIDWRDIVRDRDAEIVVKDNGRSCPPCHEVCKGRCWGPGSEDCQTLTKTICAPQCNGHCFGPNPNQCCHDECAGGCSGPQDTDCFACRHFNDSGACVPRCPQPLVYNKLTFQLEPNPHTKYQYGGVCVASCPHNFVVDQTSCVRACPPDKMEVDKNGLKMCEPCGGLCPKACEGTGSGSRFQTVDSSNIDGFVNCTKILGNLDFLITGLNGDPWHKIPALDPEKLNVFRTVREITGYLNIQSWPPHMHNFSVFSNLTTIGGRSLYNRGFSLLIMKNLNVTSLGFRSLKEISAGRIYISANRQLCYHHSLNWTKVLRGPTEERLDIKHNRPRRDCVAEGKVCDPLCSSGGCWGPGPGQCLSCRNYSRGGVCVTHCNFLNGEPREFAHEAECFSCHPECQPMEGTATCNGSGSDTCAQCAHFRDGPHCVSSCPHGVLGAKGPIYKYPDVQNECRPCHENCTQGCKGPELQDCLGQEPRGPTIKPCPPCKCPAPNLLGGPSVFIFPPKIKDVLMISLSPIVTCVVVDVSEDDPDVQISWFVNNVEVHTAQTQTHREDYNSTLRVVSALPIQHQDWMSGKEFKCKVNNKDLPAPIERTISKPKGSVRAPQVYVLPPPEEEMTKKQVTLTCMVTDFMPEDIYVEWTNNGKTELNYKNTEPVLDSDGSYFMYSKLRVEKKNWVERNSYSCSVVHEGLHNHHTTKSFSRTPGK
procedure summary: SPR (Biacore), 25 C, mAb capture format
# reported T½; entries follow
The reply should be a number in h, with the unit left off.

{"binder": "H4H2094P (antibody, V domains shown, Fully human, human IgG4 Fc (H4H prefix)) VH: EVQLVESGGGLVQPGGSLRLSCAASGFTFSSYDMHWVRQATGKGLEWVSAIGPAGDTYYPVSAMGRFTISRDDAKNSLYLQMNSLRAGDTAVYYCAREGVTIRPDDYFGLDVWGQGTTVTVSA VL: DIQLTQSPSFLSASVGDRVTITCWASQGISDYLAWYQKKPGKAPQLLIYAATTLQSGVPSRFSGSGSGTEFTLTISSLQPEDFATYYCQQLNTYPLTFGGGTKVEIKR", "T½ (h)": 130}
{"binder": "H4H1819N (antibody, V domains shown, Human IgG4 Fc (H4H prefix); same variable domains as H1M1819N) VH: EVQLVESGGGVVRPGGSLRLSCAASGFTFDDYAMHWVRQAPGKGLEWVAGISWNSGSIDYADSVKGRFTISRDNAKNSLYLQMNSLRAGDTALYYCAKDILDLDYYGLDVWGQGTTVTVSS VL: DIQMTQSPSSLSASVGDRVTITCRASQDISSYLAWYQQKPGKVPNLLIYDASSLQSGVPSRFSGSGSGTDFTLTLSSLQPEDFASYYCQNYNSAPYTFGQGTKLEIK", "T½ (h)": 12.5}
{"binder": "H4H2132P (antibody, V domains shown, Fully human, human IgG4 Fc (H4H prefix)) VH: EVQLVESGGGVVRPGGSLRLSCAASGFTFDDYGMSWVRQFPGKGLEWVSSIDGNGGNTGYSDSVKGRFTISRDNAKNSLHLQMNSLRAEDTALYHCARDPDYDSVWGNYRPFDYWGQGTLVTVSS VL: DIVMTQSPDSLAVSLGERATINCKSSQSVLSSSNDNNYLAWFQQKPGQPPNLLIYWASTRDSGVPDRFSASGSGTDFTLAISSLQAEDVAVYYCHQYYSSPPTFGQGTKVEIKR", "T½ (h)": 53}

Asked: Using the record for H4H2140P (antibody, V domains shown, Fully human, human IgG4 Fc (H4H prefix)) VH: EVQLVESGGGLVQPGGSLRLSCAASGFSVSYYDMHWVRQVTGKGLEWVSAIGPAGDTYYPGSVKGRFTISREDATNSLYLQIHSLGAGDTAVYYCAREGAIAARPDDYYGMDVWGQGTTVTVSS VL: DIQLTQSPSFLSASVGDRVTITCWASQDISSYLAWYQQKPGKAPKLLIYAASTLQSGVPSRFSGSGSGTEFTLTISSLQPEDFATYYCQQLNSYPLTFGGGTKVEIKR , report its T½.
Given back: 180

Asked: Name the recorded T½ for H4H2114P (antibody, V domains shown, Fully human, human IgG4 Fc (H4H prefix)) VH: QVQLVESGGGVVQPGRSLRLSCAASGFTFSSYGMHWVRQAPGKGLEWVAGMSYDGSSKYYEDSVKGRFTISRDNSKNTLNLQMNSLRVEDTAVYYCAKERDYVEYVDSYYGMDVWGQGTTVTVSA VL: AIQMTQSPSSLSASVGDRVTITCRASQGIRNDLGWYQQKPGKAPKVLIYAASSLQSGVPSRFSGSGSGTVFTLTISSLQPEDFATYYCLQDYNYPLTFGGGTKVEIKR .
Given back: 22.2
